System: Escherichia coli TOP10;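 note: peptides expressed intracellularly from a pBAD plasmid library in pooled LB shake-flask culture, induced with 0.3% L-arabinose, DNA abundance read by NGS, three biological replicates, DESeq2 with apeglm shrinkage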
MEASUREMENT_NOTES: shrunken log2 fold change of peptide-encoding DNA abundance (4.5 h post-induction vs induction); higher = less antimicrobial activity (less host growth inhibition)
STUDY_CONDITIONS: time post-induction: 4.5 h; library: site-saturation at positions 5, 18, 19, 20

{"columns": ["BIOSEQUENCE", "shrunken log2 fold change"],
 "data": [
  ["RRIRWRPPRLPRPRPRPIWFPRP", 1.96],
  ["RRIRNRPPRLPRPRPRPKFSPRP", -0.0617],
  ["RRIRVRPPRLPRPRPRPCWKPRP", -0.00912],
  ["RRIRNRPPRLPRPRPRPTPIPRP", 0.189],
  ["RRIRMRPPRLPRPRPRPSKHPRP", 0.159],
  ["RRIRIRPPRLPRPRPRPGFVPRP", 0.108],
  ["RRIRKRPPRLPRPRPRPANAPRP", 0.426],
  ["RRIRHRPPRLPRPRPRPAIAPRP", 0.0527],
  ["RRIRERPPRLPRPRPRPSKIPRP", -0.506],
  ["RRIRQRPPRLPRPRPRPEPIPRP", 0.047],
  ["RRIRCRPPRLPRPRPRPRALPRP", 0.113],
  ["RRIRTRPPRLPRPRPRPYLCPRP", -0.189],
  ["RRIRGRPPRLPRPRPRPNGPPRP", -0.0411],
  ["RRIRIRPPRLPRPRPRPFFSPRP", -0.799],
  ["RRIRWRPPRLPRPRPRPHIMPRP", -0.457],
  ["RRIRNRPPRLPRPRPRPGQRPRP", 0.00993],
  ["RRIRWRPPRLPRPRPRPDPWPRP", 0.0147],
  ["RRIRFRPPRLPRPRPRPHRDPRP", -0.36],
  ["RRIRRRPPRLPRPRPRPTESPRP", 0.121],
  ["RRIRSRPPRLPRPRPRPVCHPRP", -0.388],
  ["RRIRARPPRLPRPRPRPIVRPRP", -0.146],
  ["RRIRMRPPRLPRPRPRPSVMPRP", -0.194],
  ["RRIRPRPPRLPRPRPRPHACPRP", 0.00839],
  ["RRIRSRPPRLPRPRPRPTFIPRP", -0.173],
  ["RRIRNRPPRLPRPRPRPMTLPRP", -0.337],
  ["RRIRKRPPRLPRPRPRPEGHPRP", 0.0594],
  ["RRIRERPPRLPRPRPRPPCNPRP", -0.392],
  ["RRIRWRPPRLPRPRPRPVWGPRP", 0.131],
  ["RRIRNRPPRLPRPRPRPRVHPRP", 0.172],
  ["RRIRSRPPRLPRPRPRPPDLPRP", 0.543],
  ["RRIRGRPPRLPRPRPRPYCCPRP", -0.0424],
  ["RRIRRRPPRLPRPRPRPLCRPRP", 0.224],
  ["RRIRKRPPRLPRPRPRPEYFPRP", 0.084],
  ["RRIRWRPPRLPRPRPRPATSPRP", 0.385],
  ["RRIRYRPPRLPRPRPRPTIFPRP", -0.412],
  ["RRIRARPPRLPRPRPRPEWAPRP", 1.06],
  ["RRIRYRPPRLPRPRPRPHMLPRP", -1.09],
  ["RRIRGRPPRLPRPRPRPASQPRP", 0.76],
  ["RRIRIRPPRLPRPRPRPYNVPRP", -0.291],
  ["RRIRKRPPRLPRPRPRPYEEPRP", -0.0817],
  ["RRIRIRPPRLPRPRPRPEWIPRP", 0.0384],
  ["RRIRKRPPRLPRPRPRPHCKPRP", -0.397],
  ["RRIRPRPPRLPRPRPRPPSAPRP", 1.05],
  ["RRIRARPPRLPRPRPRPESDPRP", 1.17],
  ["RRIRIRPPRLPRPRPRPVEEPRP", -0.0729],
  ["RRIRWRPPRLPRPRPRPWHWPRP", -0.101],
  ["RRIRQRPPRLPRPRPRPLHFPRP", -0.0222],
  ["RRIRERPPRLPRPRPRPVTKPRP", 0.365],
  ["RRIRFRPPRLPRPRPRPHPHPRP", -0.168],
  ["RRIRIRPPRLPRPRPRPWCGPRP", -0.454],
  ["RRIRHRPPRLPRPRPRPVKTPRP", -0.164],
  ["RRIRWRPPRLPRPRPRPLCYPRP", 0.0105],
  ["RRIRMRPPRLPRPRPRPPEVPRP", 1.25],
  ["RRIRARPPRLPRPRPRPGEHPRP", 0.351],
  ["RRIRHRPPRLPRPRPRPACQPRP", 0.0463],
  ["RRIRIRPPRLPRPRPRPHHWPRP", -0.18],
  ["RRIRHRPPRLPRPRPRPIKMPRP", -0.0865],
  ["RRIRCRPPRLPRPRPRPSFMPRP", -0.688],
  ["RRIRYRPPRLPRPRPRPPQTPRP", -0.314],
  ["RRIRVRPPRLPRPRPRPMWMPRP", 0.109],
  ["RRIRLRPPRLPRPRPRPQVTPRP", 0.0952],
  ["RRIRHRPPRLPRPRPRPFDYPRP", -0.0282],
  ["RRIRSRPPRLPRPRPRPQDKPRP", -0.0231]
]}
